tested.system: pooled human IgG (human IgG1, 2, 3 and 4)
assay.readout: Enzyme Activity Endpoint Assay: Fc (ng/µL)

{"protein": "PRT-556 (protein) MANQEIRYSKAKPKVITSVWTKGVTPPTQFTYNEDVFHAPYLPNQGWYDITKTFNGKDDLLCGAATAGNMLHWWFDQNKEQIERYLKEHPEKQKINFNGEQMFDVKEAIDTKDSQTNSKLFNYFKDKAFPYLSTKHLGVFPDHVIDMFINGYRLSLTNHGPTPVKEQNKDPRGGIFDDVFTRGDQSKLLTSRHDFKEKTLKEISDLIKQELKEGKALGLSHTYANVRINHVINLWGADFDAEGNLVAIYVTDSDSNASIGMKKYYVGVNSAGKVAISAKEIEDDNIGAQVLGLFTLSTGKDIWEKTNLEHHHHHH", "experimental.result": 351}
{"protein": "PRT-256 (protein) MVTSVWTKGVTPPTNFTYGEDVLHAPYVANQGWYDITKLFNGKDDLLCGAATAGNMLHWWFDQNKEQIENYLKKHPEKQKINFNGEQMFDVKEAIDTKDSQLDSKLFEYFLEKAFPNLSTKHLGVFPDHVIDMFINGYRLSLLNHGPTPVKRGSKDPRGGIFDAVFTRGDQSKLLTNRHDFKEKTLKEISDLIKQELTEGKALGISHTYANVGINHVINLWGADFDAEGNLEAIAVTDSDSNASIGMKKYFVGVNSSGKVAISAKEIEEDNIGAQVLGLFTLSTGQDIWNQTN", "experimental.result": 376}
{"protein": "PRT-398 (protein) MVTSVWTKGVTPPADFTQGEDVFHAPYVANQGWYDITKTFNGKDDLLCGAATAGNMLHWWFDQNKEYIEAYLKKHPEKQKIMFGDQELLDVRKAINTKGSQKNSELFNYFRDKAFPNLSARRLGVMPDLVLDMFINGYYLNVTKTQTTDVNRTYQEKDKRGGIFDAVFTRGDQSKLLTSRHDFKEKGLKEISDLIKQELTEGKALGLSHTYANVRINHVINLWGADFDSDGNLKAIYVTDSDSNASIGMKKYDVGVNSAGKVAISAKEIKEDNIGAQVLGLFTLSTGQDIWNQTN", "experimental.result": 370}
{"protein": "PRT-527 (protein) MANQEIRYSEETPKTITSVWTKGVTPPTDFIKNEDVLHAPYIANQGWYDITKTFNGKDDLLCGAATAGNMLHWWFDQNKEEIENYLKKHPEKQKINFNGEQMFDVKEAIDTKDSQTDSALFEYFKDKAFPNLSTKHLGVMPDLVLDMFINGYYLSLGKHGPTPVKRGTKDPRGGIFDAVFTRGDQSKLLTSRHDFKEKTLNEISDLIKQELTEGKALALSHTYANVRINHVINLWGADFNSEGNLEAIYVTDSDSNASIGMKKYYVGVNSAGKVAISAKEIEGDNIGAQVLGLFTLSTGQDIWEQTNLEHHHHHH", "experimental.result": 142}
{"protein": "PRT-504 (protein) MITSVWTKGVTPPTDFIKGEDVFHAPYKAGQGWYDITKAFDGGDDLLCGAATAGNMLHWWFDQNKEYIEAYLKKHPEKQKIMFGDQELLDVRKAINTKGSQKNSELFNYFRDKAFPNLSARRLGVMPDLVLDMFINGYYLNVTKTQTTDVNRTYQEKDKRGGIFDAVFTRGDQSKLLTSRHDLKNKGLNEISQLIKQELTEGKALGLSHTYANVRINHVINLWGADFDADGNLEAIYVTDSDSNASIGMKKYFVGVNSAGKVAISAKEIKEDNIGAQVLGLFTLSTGQDIWNQTNLEHHHHHH", "experimental.result": 442}
{"protein": "PRT-424 (protein) MTITSVWTKGVTPPTPEDFRYNNEDVLHAPYVANQGWYDITKTFDGKDNLLCGAATAGNMLHWWFDQNKEEIERYLKKHPEKQKIIFNNQELFDVKAAIDTKDSQTNSKLFNYFRDKAFPNLSARQLGVMPDLVLDMFINGYYLNLGKTQSTDVNRPYQDKDKRGGIFDAVFTRGDQTTLLTARHDLKNKGLNEISDLIKQELTEGKALALSHTYANVRINHVINLWGADFDAEGNLIAIYVTDSDANASIGMKKYFVGVNANGKVAISAKKIEGDNIGAQVLGLFTLSLGQDIWQKLS", "experimental.result": 348}
{"protein": "PRT-526 (protein) MANQEIRYSEETPKTITSVWTKGVTPPTDFIKNEDVLHAPYIANQGWYDITKTFNGKDDLLCGAATAGNMLHWWFDQNKEEIERYLKKHPEKQKINFNGEQMFDVKEAIDTKDSQTDSALFEYFKDKAFPNLSTKHLGVMPDHVLDMFINGYYLSLGKHGPTPVKRGTKDPRGGIFDAVFTRGDQSKLLTSRHDFKEKTLKEISDLIKQELTEGKALALSHTYANVRINHVINLWGADFDSEGNLEAIYVTDSDSNASIGMKKYYVGVNSAGKVAISAKEIEGDNIGAQVLGLFTLSTGQDIWEQTNLEHHHHHH", "experimental.result": 379}
{"protein": "PRT-523 (protein) MITSVWTKGVTPPTDFIKGEDVFHAPYKAGQGWYDITKTFNGKDNLLCGAATAGNMLHWWFDQNKEEIEAYLKKHPEKQKIIFNNQELFDLKAVINTKDSQTNSALFNYFKDKAFPNLSARRLGVFPDLVLDMFINGYYLNVYKTQTTDVNRTYQTKDRRGGIFDAVFTRGVQSKLLTERHDLKNKTLKEISDLIKQELTEGKALGLSHTYANVRINHVINLWGADFDSNGNLEAIYVTDSDTNASIGMKKYFVGVNSAGKVAISAKEIKEDNIGAQVLGLFTLSTGQDIWNQTNLEHHHHHH", "experimental.result": 24}

All values here come from patent US20250027068.
